Test system: CAL-51 (Breast Carcinoma);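 note: after 72 h of two-drug dosing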
Assay comment: Bliss excess, mean over the matrix (fraction); higher = more synergy
Measure name: Bliss excess

Form field: reported Bliss excess of Cc1c2c(nn1C)CSCc1cc(n(C)n1)CSc1cc(c3ccccc3c1)OCCCc1c(C(=O)O)n(C)c3c-2c(Cl)ccc13 [AZD5991] + CCN(CCO)CCCOc1ccc2c(Nc3cc(CC(=O)Nc4cccc(F)c4)[nH]n3)ncnc2c1 [AZD2811] (first compound max 1 µM, 7x7, partner max 1 µM) 0.112

Next:
Form field: reported Bliss excess of Cc1c2c(nn1C)CSCc1cc(n(C)n1)CSc1cc(c3ccccc3c1)OCCCc1c(C(=O)O)n(C)c3c-2c(Cl)ccc13 [AZD5991] + C1CN(CCC1(C(=O)N[C@@H](CCO)C2=CC=C(C=C2)Cl)N)C3=NC=NC4=C3C=CN4 [Capivasertib] (first compound max 1 µM, 7x7, partner max 3 µM) 0.0392

What do we get for C[C@@H](c1ccc2nccn2c1)n1nnc2ncc(-c3cnn(C)c3)nc21 [Savolitinib] + Cc1c2c(nn1C)CSCc1cc(n(C)n1)CSc1cc(c3ccccc3c1)OCCCc1c(C(=O)O)n(C)c3c-2c(Cl)ccc13 [AZD5991] (first compound max 1 µM, 7x7, partner max 1 µM) ? -0.0115
